system: intracellular Leishmania major amastigotes (luciferase-expressing, in RAW 264.7 macrophages); assay: Luciferase-expressing intracellular L. major amastigote-macrophage dose-response assay; assay type: cell-based; conditions: Leishmania major, RAW264.7; transgenic luciferase expressing intracellular L. major amastigote-macrophage parasites; 96 hours; read-out: Geometric mean L. major IC50 ± SD (n)
Quick reference: pIC50 of the listed items.
# pIC50 = -log10(concentration in molar units)

molecule: N=C(N)c1ccc(OCCCCCOc2ccc(C(=N)N)cc2)cc1 [Pentamidine, reference compound]
pIC50: 5.47
--
molecule: CC(=O)N1CCN(c2ccc(OCC3COC(Cn4ccnc4)(c4ccc(Cl)cc4Cl)O3)cc2)CC1 (stereo not drawn) [Ketoconazole, reference compound]
pIC50: 4.70
--
molecule: CCN(CC)CCCCCCNc1cc(OC)cc2c(C)ccnc12 [Sitamaquine, reference compound]
pIC50: 5.00
--
molecule: CCCCCCCCCCCCCCCCOP(=O)([O-])OCC[N+](C)(C)C [Miltefosine, reference compound]
pIC50: 6.26
--
molecule: C[C@@H]1[C@H](O)[C@@H](C)/C=C/C=C/C=C/C=C/C=C/C=C/C=C/[C@H](O[C@@H]2O[C@H](C)[C@@H](O)[C@H](N)[C@@H]2O)C[C@@H]2O[C@](O)(C[C@@H](O)C[C@@H](O)[C@H](O)CC[C@@H](O)C[C@@H](O)CC(=O)O[C@H]1C)C[C@H](O)[C@H]2C(=O)O [Amphotericin B, reference compound]
pIC50: 7.57

With those in mind, consider the next molecule.
Reported pIC50 ( NC[C@@H]1O[C@H](O[C@H]2[C@@H](O)[C@H](O[C@@H]3[C@@H](O)[C@H](N)C[C@H](N)[C@H]3O[C@H]3O[C@H](CO)[C@@H](O)[C@H](O)[C@H]3N)O[C@@H]2CO)[C@H](N)[C@@H](O)[C@@H]1O [Paromomycin, reference compound] ) = 6.11
